Tested on: MDA-MB-435
protocol.summary: NCI tumour cell line growth inhibition, 48 h
Give measured TGI for each item. Keep answers brief.
One number for each entry, in µM.

Examples with answers:
| smiles.string | unit.of.measure | TGI |
| --- | --- | --- |
| Cn1c(N)nc(-c2ccc(Cl)cc2)c1SSc1c(-c2ccc(Cl)cc2)nc(N)n1C | µM | 3.54 |
| O=[N+]([O-])c1ccc(N2CCC(CCCC3CCN(c4ccc([N+](=O)[O-])cc4[N+](=O)[O-])CC3)CC2)c([N+](=O)[O-])c1 | µM | 26.8 |

API: the following record is the query input.
# TGI (molecule: COC(=O)Nc1nc2ccc(Oc3cccc(NC(=O)Nc4cc(C(F)(F)F)ccc4F)c3)cc2[nH]1 ) is 18.8

* * *

Task for the reader: assign each of the following molecules its reported TGI.
Test system: 786-0 renal
protocol.summary: NCI tumour cell line growth inhibition, 48 h

Worked set:
| smiles.string | subject.of.test | TGI |
| --- | --- | --- |
| Nc1nc(-c2ccco2)cc(-c2ccc(CO)o2)n1 | 786-0 renal | > 100 µM |
| Cc1cc(S(=O)(=O)/N=C(\[N-]S(=O)(=O)c2cc(Cl)sc2Cl)[n+]2ccc(N(C)C)cc2)c(S)cc1Cl | 786-0 renal | > 100 µM |
| O=C1/C(=N\O)S(=O)(=O)c2ccccc21 | 786-0 renal | > 100 µM |
| CN(C)c1ccc(C(=NO)c2ccc(N(C)C)cc2)cc1 | 786-0 renal | > 100 µM |

Query molecule follows.
TGI measured on O=C(N/C(=C\c1ccc(/C=C(\NC(=O)c2ccccc2)c2nc3ccccc3[nH]2)cc1)c1nc2ccccc2[nH]1)c1ccccc1 = > 100 µM

* * *

System: NCI-H522 lung
protocol.summary: NCI tumour cell line growth inhibition, 48 h
reported.property: TGI (µM)
Numbers only, in µM.

Answer for every listed entry: what is its TGI? The entries follow.
1. COc1ccccc1C1c2cc3c(cc2OC(N2CCOCC2)C1C)OCO3 (configuration not stated)
2. COC(=O)Nc1nc2ccc(Oc3cccc(NC(=O)Nc4cc(C(F)(F)F)ccc4F)c3)cc2[nH]1
3. Nc1ncnc2c1c(-c1ccc(Oc3ccccc3)cc1)nn2C[C@@H]1SSC[C@H]1O
4. CC(C)(c1ccccc1)c1ccc(Oc2ccc(C#N)c(C#N)c2)cc1

Solution:
30.1
20.6
7.18
84.8

Quick request: TGI for each listed item, please.
1. CCN1C(=O)N(CC)C2C1NN=c1s/c(=C\c3ccccn3)c(=O)n12 (configuration not stated)
2. C#CCNCCN1C(=O)c2ccc3c4c(ccc(c24)C1=O)C(=O)N(CCNCC#C)C3=O

Solution:
[10.2, 10.9]

List reported TGI for each of these compounds:
1. CC(C)Oc1c(-c2ccc(F)cc2)c(O)c2c3c1oc(=O)n3C=CC2C (configuration not stated)
2. C[CH2][Sn]([CH2]C)([O]C(=O)c1ccccc1F)[O][Sn]([CH2]C)([CH2]C)[O]C(=O)c1ccccc1F
3. COc1cccc(-c2cc3c4c(nc5ccccc53)C(=O)c3cccnc3-c4n2)c1

Solution:
1: 27.2; 2: 2.61; 3: 2.01

* * *

Test system: SNB-75 CNS
protocol.summary: NCI tumour cell line growth inhibition, 48 h
reported.property: TGI (µM)
Give bare numbers, in µM.

| compound | number |
| --- | --- |
| CC(C)NC(=O)OCc1c2c(n(C)c1COC(=O)NC(C)C)-c1ccccc1CC2 | 29.4 |
| O=C(c1cc2c(c3ccccc13)NC1(CCCCC1)N=C2C(F)(F)F)C(F)(F)F | 19.1 |
| Cc1nn(C)c(COc2ccc(N3CCN(S(=O)(=O)N(C)C)CC3)cc2)c1-c1cccc2c(CCCOc3cccc4ccccc34)c(C(=O)O)n(CCN3CCOCC3)c12 | 10.5 |
| [O-]c1ccccc1/C=N/C(/N=C/c1ccccc1[O-])c1ccccc1O.[O-]c1ccccc1/C=N/C(/N=C/c1ccccc1[O-])c1ccccc1O.[Zr+4] | 61.1 |
| CCn1cnnc1-c1nsc2ccccc12 | 41.8 |

# map each compound to its TGI
1. OC1CSc2nc3ccccc3n2C1 (stereo not given)
2. Cn1c(N)nc(-c2ccc(Cl)cc2)c1SSc1c(-c2ccc(Cl)cc2)nc(N)n1C
3. CCOC(=O)c1c(NC(=S)Nc2ccccc2)sc2c1CCOC2

Solution:
44.8
20.8
62.1
